Every entry's value here was drawn from PubChem BioAssay (NCI).

- Test system: LOX IMVI melanoma
- assay: NCI-60 one-dose screen, 48 h
- recorded conditions: 10 µM unless noted
This is part of a sample that, as a whole, favours compounds with a hit. Of some 83,000 tested, about 20% had one in any assay. Active and inactive are the calls of the source. Rule for the calls: active = growth percent below 10; inactive = the rest.
Select the correct class. Options are active, inactive and nothing else.

Query: Per the assay record, what outcome was assigned to "O=c1oc2c(Br)cc(Br)cc2cc1-c1cc(-c2ccc(-c3cc(-c4cc5cc(Br)cc(Br)c5oc4=O)nc(-c4cc5cc(Br)cc(Br)c5oc4=O)c3)cc2)cc(-c2cc3cc(Br)cc(Br)c3oc2=O)n1" ?
Response: inactive

Query: Per the assay record, what outcome was assigned to "COc1cc2c(cc1OCCCOC1=C=C=C(c3ccc4c(c3)c3cc(-c5ccc(OCCCOc6cc7c(cc6OC)C(=O)N6CCC[C@H]6C=N7)cc5)ccc3n4S(=O)(=O)c3ccc(C)cc3)C=C1)N=C[C@@H]1CCCN1C2=O" ?
Response: active

Query: Per the assay record, what outcome was assigned to "COc1ccccc1/C=C1\COc2ccc(O)cc2C1=O" ?
Response: inactive

Query: Per the assay record, what outcome was assigned to "CCCCCCCCCCCCCCCCCCOc1cccc(CC(=O)OCC[N+](CC)(CC)CC)c1" ?
Response: inactive

Query: Per the assay record, what outcome was assigned to "CN1CCN(Cc2ccc(NC(=O)c3nc4ccc5[nH]ncc5c4c4c3CCCC4)cc2C(F)(F)F)CC1" ?
Response: active

Query: Per the assay record, what outcome was assigned to "Cn1cc(-c2csc(-c3cn(CCOC(N)=O)c4ccccc34)n2)c2cccnc21" ?
Response: inactive

Query: Per the assay record, what outcome was assigned to "O=S(=O)(Nc1cc(Sc2cccc3cccnc23)c(O)c2ccccc12)c1ccc(F)cc1" ?
Response: active

Query: Per the assay record, what outcome was assigned to "COC1=CC(=O)C(OC)=C(O)C1=O" ?
Response: inactive

Query: Per the assay record, what outcome was assigned to "COc1cc(NS(=O)(=O)C(C)C)cc(-c2cc(-c3ccc(N4CCNCC4)cc3)cnc2N)c1" ?
Response: inactive

Query: Per the assay record, what outcome was assigned to "CCN(c1cc(-c2ccc(CN3CCC(/C=C/S(=O)(=O)c4ccccc4)CC3)cc2)cc(C(=O)NCc2c(C)cc(C)[nH]c2=O)c1C)C1CCOCC1" ?
Response: inactive

Query: Per the assay record, what outcome was assigned to "COc1ccc(-c2cc3cnc4ccccc4c3oc2=O)cc1" ?
Response: inactive

Query: Per the assay record, what outcome was assigned to "O=C(Nc1ccc2ccccc2c1)c1cc2ccccc2cc1O" ?
Response: inactive

Query: Per the assay record, what outcome was assigned to Nc1nc(N)c2c(n1)NC(c1ccc(Cl)cc1)CC(c1cccc(Nc3ccncc3)c1)=N2 (stereo not given) ?
Response: inactive

Query: Per the assay record, what outcome was assigned to "Cc1ccc(C(=O)N(CCCN)[C@@H](c2nc3cc(Cl)ccc3c(=O)n2Cc2ccccc2)C(C)C)cc1" ?
Response: active

Query: Per the assay record, what outcome was assigned to "CON1CCC[C@]2(C)[C@H]3CC[C@@H]4[C@H]5[C@@H](O)C(C)(C)CC[C@]5(CO)CC[C@@]4(C)[C@]3(C)CC[C@H]2C1(C)C" ?
Response: inactive

Query: Per the assay record, what outcome was assigned to "COCCn1cc(-c2nc(-c3cn(CCOC)c4ncccc34)cs2)c2ccccc21" ?
Response: inactive

Query: Per the assay record, what outcome was assigned to "Brc1ccc(/C=C(/C2=NCCN2)n2ccc3ccccc32)cc1" ?
Response: inactive

Query: Per the assay record, what outcome was assigned to "COc1ccc(Cl)cc1Nc1nc(C(F)(F)F)ccc1C(=O)N/N=C/c1ccc(N(C)C)cc1" ?
Response: inactive

Query: Per the assay record, what outcome was assigned to "C=CCN1C=CC(=O)[C@H](O[Si](C)(C)C(C)(C)C)[C@@H]1/C=C/c1ccccc1" ?
Response: active

Query: Per the assay record, what outcome was assigned to "O=C1c2cc3c(cc2-c2c1c1ccc(Cl)cc1c(=O)n2CCCn1ccnc1)OCO3" ?
Response: active

Query: Per the assay record, what outcome was assigned to CC[C@]1(O)CC2CN(CCc3c([nH]c4ccccc34)C(C(=O)OC)(c3cc4c(cc3OC)N(C=O)[C@H]3[C@@](O)(C(=O)OC)[C@H](OC(C)=O)[C@]5(CC)[C@@H]6C[C@@H]6CN6CC[C@]43[C@@H]65)C2)C1 (stereo not given in full) ?
Response: inactive

Query: Per the assay record, what outcome was assigned to "COc1ccc(-c2ccc(-c3ccc(C(=N)N)cn3)s2)cc1Cl" ?
Response: active

Query: Per the assay record, what outcome was assigned to "CCCCC#Cc1c(/C=C(\CCCC)SCC)n(C)c(=O)[nH]c1=O" ?
Response: inactive

Query: Per the assay record, what outcome was assigned to "COc1ccc(C/C(C)=C(\c2ccc(O)cc2)c2ccc(OCCCN(C)C)cc2)cc1" ?
Response: inactive

Query: Per the assay record, what outcome was assigned to Cc1ccc2c(c1)C(C)Cc1c(ncnc1-n1cnc3cc(C)ccc31)N2C (stereo not given) ?
Response: inactive

Query: Per the assay record, what outcome was assigned to Nc1nc(N)c2c(n1)NC(c1cccc(Nc3ccnc4cc(C(F)(F)F)ccc34)c1)CC(c1ccc(F)cc1)=N2 (stereo not given) ?
Response: inactive

Query: Per the assay record, what outcome was assigned to "Cc1ccc(/C=C(\C#N)c2cc3ccccc3[nH]2)cc1" ?
Response: inactive

Query: Per the assay record, what outcome was assigned to O=C1OCC2=C1C(c1cccc(C(F)(F)F)c1)c1cc3c(cc1N2CCO)CCC3 (stereo not given) ?
Response: inactive

Query: Per the assay record, what outcome was assigned to "COc1cc(/C=C2\C(=O)N(CCCCn3c4ccccc4c(=O)c4ccccc43)c3ccccc32)cc(OC)c1O" ?
Response: inactive

Query: Per the assay record, what outcome was assigned to "O=C(NNc1ccccc1)c1ncc[nH]1" ?
Response: active

Query: Per the assay record, what outcome was assigned to "O=C(NCCCN1CCCCC1)c1ccc(-c2nc3ccc4[nH]ncc4c3c3c2CCCC3)cc1" ?
Response: inactive

Query: Per the assay record, what outcome was assigned to "NC(=O)c1c(NC(=O)/C=C/c2cccs2)sc2c1CCC(=O)C2" ?
Response: inactive

Query: Per the assay record, what outcome was assigned to "O=[N+]([O-])c1cc(C(F)(F)F)ccc1Sc1ccc(C(F)(F)F)cc1[N+](=O)[O-]" ?
Response: inactive

Query: Per the assay record, what outcome was assigned to "O=C(N/N=C/c1ccc(O)cc1O)c1cccc(Nc2ccnc(C(F)(F)F)c2)c1" ?
Response: inactive

Query: Per the assay record, what outcome was assigned to "COc1ccc(NC(=O)Nc2ccccc2CNc2nc(Nc3ccc(OCCN4CCCC4)cc3)ncc2Cl)cc1" ?
Response: active
